Listed next: entries and their corresponding Percent Control.
- Test system: CHEK2
- EXPERIMENTAL CONDITIONS: Compound Concentration (nM):1000;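 further: KINOMEscan scanMAX binding as percent activity remaining versus control; lower means stronger binding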
Provide the reading as a plain figure in %.

[
  {
    "MOLECULE": "COc1cc(/C=N/Nc2ncnc3[nH]ncc23)ccc1O [GW578748X]",
    "SUBJECT OF TEST": "CHEK2",
    "Percent Control [%]": 51
  }
]

Return the recorded Percent Control value; entry: COc1cc(N2CCN(C(C)C)CC2)ccc1Nc1nc(Nc2ccc(F)cc2C(=O)NC[C@@H](O)CO)c2cc[nH]c2n1 [GSK1392956A]
0.2

Return the recorded Percent Control value; entry: NS(=O)(=O)c1ccc(N/N=C2\C(=O)Nc3ccc(C(=O)NCc4ccncc4)cc32)cc1 [GW300657X]
67

Return the recorded Percent Control value; entry: COc1cc2ncn(-c3cc(O[C@H](C)c4ccccc4Cl)c(C(N)=O)s3)c2cc1OC [GSK237701A]
100

----------
Listed next: entries and their corresponding Percent Control.
- System: TAK1
- Construct: gene MAP3K7
- EXPERIMENTAL CONDITIONS: Compound Concentration (nM):1000
Provide the reading as a plain figure in %.

Return the recorded Percent Control value; entry: Cl.c1ccc(Cc2nc3ccc(Nc4ncnc5ccccc45)cc3[nH]2)cc1 [GR269666A]
100

----------
- Test system: CAMK2B
- EXPERIMENTAL CONDITIONS: Compound Concentration (nM):1000
Listed next: entries and their corresponding Percent Control.
Provide the reading as a plain figure in %.

Some compounds with recorded Percent Control:
[
  {
    "COMPOUND": "COc1cc(C=NNc2ncnc3c2cnn3-c2ccccc2)ccc1O [GW513184X]",
    "UNIT INFO": "%",
    "Percent Control": 100
  },
  {
    "COMPOUND": "Nc1ncnc2occ(-c3ccc(NC(=O)Nc4cc(C(F)(F)F)ccc4F)cc3)c12 [GW770249X]",
    "UNIT INFO": "%",
    "Percent Control": 100
  },
  {
    "COMPOUND": "C/C(Nc1ccc(S(N)(=O)=O)cc1)=C1/C(=O)Nc2ccccc21 [GW335962X]",
    "UNIT INFO": "%",
    "Percent Control": 72
  },
  {
    "COMPOUND": "CC(C)COC(=O)c1ccc2c(c1)/C(=C/Nc1ccc(S(N)(=O)=O)cc1)C(=O)N2 [GW416981X]",
    "UNIT INFO": "%",
    "Percent Control": 71
  }
]

Send back CAMK2B Percent Control of NS(=O)(=O)c1ccc(N/N=C2\C(=O)Nc3ccc(C(=O)NCc4ccncc4)cc32)cc1 [GW300657X] only.
78

Send back CAMK2B Percent Control of COC(=O)Nc1nc2ccc(Oc3ccc(NC(=O)Nc4cc(C(F)(F)F)ccc4F)cc3)cc2s1.Cl [GW693917A] only.
88

Send back CAMK2B Percent Control of O=C(Nc1n[nH]c2nc(-c3ccc(O)cc3)c(Br)cc12)C1CC1 only.
97

----------
- Test system: PLK3
- EXPERIMENTAL CONDITIONS: Compound Concentration (nM):1000
Listed next: entries and their corresponding Percent Control.
Provide the reading as a plain figure in %.

Some compounds with recorded Percent Control:
[
  {
    "COMPOUND": "CC1=C(C(=O)Nc2ccc3[nH]ncc3c2)C(c2ccc(Cl)c(Cl)c2)CC(=O)N1 (centres unmarked) [GSK299115A]",
    "Percent Control (%)": 84
  },
  {
    "COMPOUND": "CCc1ccc(Oc2nccc(-c3c(-c4ccc(F)cc4)ncn3C3CCNCC3)n2)cc1",
    "Percent Control (%)": 83
  }
]

Return the recorded Percent Control value; entry: COc1cc(/C=N/Nc2ncnc3[nH]ncc23)ccc1O [GW578748X]
52

Return the recorded Percent Control value; entry: CC(C)COC(=O)c1ccc2c(c1)/C(=C/Nc1ccc(S(N)(=O)=O)cc1)C(=O)N2 [GW416981X]
83

Return the recorded Percent Control value; entry: O=C(Nc1n[nH]c2nc(-c3ccc(O)cc3)c(Br)cc12)C1CC1
88

----------
Listed next: entries and their corresponding Percent Control.
- System: TRKA
- Construct: gene NTRK1
- EXPERIMENTAL CONDITIONS: Compound Concentration (nM):1000
Provide the reading as a plain figure in %.

Some compounds with recorded Percent Control:
[
  {
    "COMPOUND": "COc1ccc(COc2ccc(Cc3cnc(N)nc3N)cc2OC)cc1 [GW632580X]",
    "UNIT INFO": "%",
    "Percent Control": 4.2
  },
  {
    "COMPOUND": "Cl.O=C(Nc1ccc(Oc2ccc3[nH]c(NC(=O)c4ccco4)nc3c2)cc1)Nc1cc(C(F)(F)F)ccc1F [GW683134A]",
    "UNIT INFO": "%",
    "Percent Control": 5
  }
]

Return the recorded Percent Control value; entry: Cl.O=C(O[C@H]1CN[C@H](C#Cc2cc3ncnc(Nc4ccc5c(cnn5Cc5ccccc5)c4)c3s2)C1)N1CCOCC1 [GSK200398A]
70

Return the recorded Percent Control value; entry: CC(C)COC(=O)c1ccc2c(c1)/C(=C/Nc1ccc(S(N)(=O)=O)cc1)C(=O)N2 [GW416981X]
23

----------
- Tested on: TNK2
- EXPERIMENTAL CONDITIONS: Compound Concentration (nM):1000
Listed next: entries and their corresponding Percent Control.
Provide the reading as a plain figure in %.

[
  {
    "MOLECULE": "CCn1c(-c2nonc2N)nc2c(C#CC(C)(C)O)nc(OCCNC)cc21.Cl [GSK949675]",
    "OBSERVED VALUE": 100
  },
  {
    "MOLECULE": "CN(C)CCNC(=O)Nc1ccc(N(C)c2ccnc(Nc3ccc(CS(C)(=O)=O)cc3)n2)cc1.Cl [GW830900A]",
    "OBSERVED VALUE": 75
  },
  {
    "MOLECULE": "CN1CCN(C(=O)c2ccc(NC(=O)Nc3ccc(N(C)c4ccnc(Nc5ccc(CS(C)(=O)=O)cc5)n4)cc3)cc2)CC1.Cl [GW830263A]",
    "OBSERVED VALUE": 6.5
  },
  {
    "MOLECULE": "COc1cc2ncnc(Nc3ccc4c(cnn4Cc4ccccc4)c3)c2cc1OC.Cl [GW282449A]",
    "OBSERVED VALUE": 77
  },
  {
    "MOLECULE": "CC1=C(C(=O)Nc2ccc3[nH]ncc3c2)C(c2ccc3ccccc3c2)CC(=O)N1 (centres unmarked) [GSK270822A]",
    "OBSERVED VALUE": 62
  },
  {
    "MOLECULE": "COc1cc(/C=N/Nc2ncnc3[nH]ncc23)ccc1O [GW578748X]",
    "OBSERVED VALUE": 100
  },
  {
    "MOLECULE": "COc1cc(C)c(N(C)C(=O)CN(C)C)cc1Nc1nc(Nc2cccc(F)c2C(N)=O)c2cc[nH]c2n1 [GSK2219385]",
    "OBSERVED VALUE": 100
  }
]

Okay, next one:
Send back TNK2 Percent Control of Cl.O=S1CCN(Cc2ccc(-c3ccc4ncnc(Nc5ccc(OCc6ccccc6)c(F)c5)c4c3)o2)CC1 [GW576924A] only.
100

----------
- Tested on: LYN
- EXPERIMENTAL CONDITIONS: Compound Concentration (nM):1000
MEASUREMENT LABEL: Percent Control (%)
Provide the reading as a plain figure in %.

Some molecules with recorded Percent Control:
[
  {
    "MOLECULE": "CCS(=O)(=O)c1ccc(OC)c(Nc2ncc(-c3cccc(OC)c3)o2)c1 [GW580509X]",
    "SUBJECT OF TEST": "LYN",
    "MEASUREMENT LABEL": "Percent Control",
    "UNIT INFO": "%",
    "OBSERVED VALUE": 53
  },
  {
    "MOLECULE": "COc1ccc2c(-c3ccnc(Nc4cccc(OC(F)(F)F)c4)n3)cnn2n1 [GW810372X]",
    "SUBJECT OF TEST": "LYN",
    "MEASUREMENT LABEL": "Percent Control",
    "UNIT INFO": "%",
    "OBSERVED VALUE": 100
  },
  {
    "MOLECULE": "C[C@@H](Oc1cc(-n2cnc3ccc(OC4CCN(C)CC4)cc32)sc1C(N)=O)c1ccccc1Cl [GSK579289A]",
    "SUBJECT OF TEST": "LYN",
    "MEASUREMENT LABEL": "Percent Control",
    "UNIT INFO": "%",
    "OBSERVED VALUE": 93
  }
]

Send back LYN Percent Control of COc1cc(C=NNc2ncnc3c2cnn3-c2ccccc2)ccc1O [GW513184X] only.
74

Send back LYN Percent Control of CN1CCN(C(=O)c2ccc(NC(=O)Nc3ccc(N(C)c4ccnc(Nc5ccc(CS(C)(=O)=O)cc5)n4)cc3)cc2)CC1.Cl [GW830263A] only.
71

Send back LYN Percent Control of CC1=C(C(=O)Nc2ccc3[nH]ncc3c2)C(c2ccc3ccccc3c2)CC(=O)N1 (stereo not drawn) [GSK270822A] only.
66
